Each entry below lists one item and its recorded AC50 value.
tested system: Sodium-dependent noradrenaline transporter (Homo sapiens, UniProt P23975); further: assay procedure not described here
Sequence (P23975 whole entry): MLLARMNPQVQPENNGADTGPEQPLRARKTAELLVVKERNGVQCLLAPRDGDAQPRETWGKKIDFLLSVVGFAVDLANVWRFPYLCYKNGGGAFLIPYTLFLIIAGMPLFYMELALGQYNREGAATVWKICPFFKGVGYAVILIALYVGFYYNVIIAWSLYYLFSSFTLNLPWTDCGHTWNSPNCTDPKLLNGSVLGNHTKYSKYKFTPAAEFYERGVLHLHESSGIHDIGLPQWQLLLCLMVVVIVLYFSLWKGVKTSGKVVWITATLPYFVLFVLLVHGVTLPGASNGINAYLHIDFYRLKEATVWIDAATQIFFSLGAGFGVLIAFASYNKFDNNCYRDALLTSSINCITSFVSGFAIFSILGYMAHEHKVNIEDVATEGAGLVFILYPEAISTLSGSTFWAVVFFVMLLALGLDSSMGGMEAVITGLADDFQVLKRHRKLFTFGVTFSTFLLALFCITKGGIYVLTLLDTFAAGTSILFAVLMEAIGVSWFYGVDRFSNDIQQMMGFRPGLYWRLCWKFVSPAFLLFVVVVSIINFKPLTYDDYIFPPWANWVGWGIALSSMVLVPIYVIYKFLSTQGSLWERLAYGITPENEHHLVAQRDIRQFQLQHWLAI

[
  {
    "compound": "Cc1ccc(S(=O)(=O)NC(=O)NN2CC3CCCC3C2)cc1 (centres undefined) [GLICLAZIDE]",
    "AC50": "> 10 µM"
  },
  {
    "compound": "CC(=O)O[C@H]1CC[C@@]2(C)C(=CC[C@@H]3[C@@H]2CC[C@]2(C)C(c4cccnc4)=CC[C@@H]32)C1 [ABIRATERONE ACETATE]",
    "AC50": "> 30 µM"
  },
  {
    "compound": "CC[C@@H]1C(=O)OC[C@@H]1Cc1cncn1C [PILOCARPINE]",
    "AC50": "> 30 µM"
  },
  {
    "compound": "C[C@H](CSC(=O)c1ccccc1)C(=O)N1C[C@@H](Sc2ccccc2)C[C@H]1C(=O)O [ZOFENOPRIL]",
    "AC50": "> 10 µM"
  }
]

Reference for the values: ChEMBL document CHEMBL5291721
